test: Verification pharmacokinetic experiment in rats, SPC 60 g crude drug/kg by gavage, UFLC-MS/MS, DAS 2.0; assay type: in vivo, rat; conditions: rat, plasma, po, 0.124 mg/kg, statistical moment parameters, DAS 2.0; rats p.o. SPC 60 g crude drug/kg; Mean, 5 rats; read-out: MRT(0-∞)
MEASUREMENT NAME: MRT inf
Please append the unit to your numeric answer.

Let me know recorded MRT inf for COc1cc(-c2coc3cc(O)ccc3c2=O)ccc1O , thanks.
3.44 h

* * *

assay: Verification pharmacokinetic experiment in rats, SPC 60 g crude drug/kg by gavage, UFLC-MS/MS, DAS 2.0; format: in vivo, rat; conditions: rat, plasma, po, 2.62 mg/kg, statistical moment parameters, DAS 2.0; rats p.o. SPC 60 g crude drug/kg; Mean, 5 rats; read-out: AUC(0-t)
MEASUREMENT NAME: AUC(0-t) (ng·h/mL)
Your answer should be a plain number; it is taken to be in ng·h/mL.

Please give the documented AUC(0-t) of COc1cc([C@H]2c3cc(O)c(OC)cc3C[C@@H](CO)[C@@H]2CO)ccc1O
55.7

* * *

assay: Verification pharmacokinetic experiment in rats, SPC 60 g crude drug/kg by gavage, UFLC-MS/MS, DAS 2.0; assay type: in vivo, rat; conditions: rat, plasma, po, 0.124 mg/kg, statistical moment parameters, DAS 2.0; rats p.o. SPC 60 g crude drug/kg; Mean, 5 rats; read-out: AUC(0-∞)
MEASUREMENT NAME: AUC(0-inf) (ng·h/mL)
Your answer is read as ng·h/mL, so omit the unit and give the number.

Query AUC(0-inf) for COc1cc(-c2coc3cc(O)ccc3c2=O)ccc1O
20

* * *

test: Verification pharmacokinetic experiment in rats, SPC 60 g crude drug/kg by gavage, UFLC-MS/MS, DAS 2.0; type: in vivo, rat; details: statistical moment parameters, DAS 2.0; rats p.o. SPC 60 g crude drug/kg; Mean, 5 rats; in µg·h²/mL
MEASUREMENT NAME: AUMC(0-∞)

// worked examples, AUMC(0-∞) included
# STRUCTURE SMILES STRING, MEASUREMENT NAME, VALUE MEASURED
records = [
    ("COc1ccc(-c2coc3c(OC)c(O)ccc3c2=O)cc1", "AUMC(0-∞)", 20.163),
    ("O=c1c(-c2ccc(O)cc2)coc2cc(O[C@@H]3O[C@H](CO)[C@@H](O)[C@H](O)[C@H]3O)ccc12", "AUMC(0-∞)", 75.236),
    ("COc1cc(-c2coc3cc(O)ccc3c2=O)ccc1O", "AUMC(0-∞)", 68.893),
]

From here, focus on the item given below.
Return AUMC(0-∞) (reported value) for this molecule: COc1cc([C@H]2c3cc(O)c(OC)cc3C[C@@H](CO)[C@@H]2CO)ccc1O
123.911

* * *

assay: Verification pharmacokinetic experiment in rats, SPC 60 g crude drug/kg by gavage, UFLC-MS/MS, DAS 2.0; assay type: in vivo, rat; settings: statistical moment parameters, DAS 2.0; rats p.o. SPC 60 g crude drug/kg; Mean, 5 rats
MEASUREMENT NAME: VRT(0-∞) (h^2)
Entry rule: numbers only, all in h^2.

Some compounds with recorded VRT(0-∞):
# STRUCTURE SMILES STRING, U, VALUE MEASURED
records = [
    ("COc1cc([C@H]2c3cc(O)c(OC)cc3C[C@@H](CO)[C@@H]2CO)ccc1O", "h^2", 6.027),
    ("COc1ccc(-c2coc3c(OC)c(O)ccc3c2=O)cc1", "h^2", 3.316),
]

Note VRT(0-∞) for the compound shown: COc1cc(-c2coc3cc(O)ccc3c2=O)ccc1O
16.239

Identify measured VRT(0-∞) associated with O=c1c(-c2ccc(O)cc2)coc2cc(O[C@@H]3O[C@H](CO)[C@@H](O)[C@H](O)[C@H]3O)ccc12
8.138
